- EXPERIMENTAL SYSTEM: T1, mouse IL-2Rα (mouse, UniProt P01590 22-236, limits assumed)
- T1 construct: recombinant protein; also called mo IL-2R; mouse IL-2Ra
- T1 sequence (looked up): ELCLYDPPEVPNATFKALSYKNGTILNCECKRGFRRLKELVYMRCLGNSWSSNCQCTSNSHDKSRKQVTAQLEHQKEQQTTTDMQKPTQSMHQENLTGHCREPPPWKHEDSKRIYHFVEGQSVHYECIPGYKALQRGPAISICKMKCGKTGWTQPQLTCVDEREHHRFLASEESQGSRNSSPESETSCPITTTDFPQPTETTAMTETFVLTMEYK
- ASSAY NAME: ELISA, P.E. on coated antigen
METRIC: OD (PE binding ELISA) (OD450 nm)

binder="FJ1427_P035MP05C10 (VHH, periplasmic extract; also called clone nr) VHH: QLQLVESGGGLVQTGGSLRLSCSTSGFTFDGYAIGWFRQAPGKEPEGVSYITGSDGSTYYADSVKGRFTISSDNAKNTVYLHMNSLKPDDAAVYYCAIDRLGSGGAYVPIWWRSSDMDLWGKGTLVTVSS" metric="OD (PE binding ELISA)" observed_result=0.071
binder="FJ1427_P035MP05B08 (VHH, periplasmic extract; also called clone nr) VHH: QLQLVESGGGLVQAGGSLRLSCVAHGLTFDGYAIGWFRQAPGKELEGVSYITGSDGSRYYADSVKGRFTISSDVAKNTVYLHMNNLKPDDAARYYCAVDRLGSRGAYVSAWWRSSDMDLWGKGTLVTVSS" metric="OD (PE binding ELISA)" observed_result=0.057
binder="FJ1427_P035MP05C11 (VHH, periplasmic extract; also called clone nr) VHH: QVQLVESGGGLVQAGGSLRLSCTASGLTFEGYAIGWFRQAPGKEREGVSYITGSDASTYYIDSVKGRFTISSDFAKSTVYLQMNNLKPEDTAVYYCAVDRLGSRGGYASSWWRSGDMDLWGKGTLVTVSS" metric="OD (PE binding ELISA)" observed_result=0.632
binder="11-MP05H04 (VHH, periplasmic extract; also called FJ1427_P035MP05H04) VHH: QLQLVESGGGLVQAGGSLRLSCAASGLTFEGYAIGWFRQAPGKEREGVSYITGSDGTTYYINSVKGRFTISSDNAKSTVYLQMNTLKPEDTAVYYCAVDRLGSQGRYASAWWRSGDMDLWGKGTQVTVSS" metric="OD (PE binding ELISA)" observed_result=0.163
binder="FJ1427_P035MP05D10 (VHH, periplasmic extract; also called clone nr; 460) VHH: QVQLVESGGGLVQAGGSLRLSCTASGLTFDGYAIGWFRQAPGKEREGVSYITGSDGSTYYRDSVKGRFTISSDNAKSTVYLQMNTLKPEDTAVYYCAVDRLGSRGLYASSWWRSGDMDLWGKGTLVTVSS" metric="OD (PE binding ELISA)" observed_result=0.107
